// reported IC50 per item
# Tested on: Caenorhabditis elegans
# experimental details: Tested in vitro for the biological efficacy using Caenorhabditis elegans binding assay
# Assay type: functional, organism-based

CCC(C)[C@H]1O[C@]2(C=C[C@@H]1C)C[C@@H]1C[C@@H](C/C=C(\C)[C@@H](O[C@H]3C[C@H](OC)[C@@H](O[C@H]4C[C@H](OC)[C@H]([S+]([O-])CCO)[C@H](C)O4)[C@H](C)O3)[C@@H](C)/C=C/C=C3\CO[C@@H]4[C@H](O)C(C)=C[C@@H](C(=O)O1)[C@]34O)O2 (some centres not stated) = > 1.27 ng/mL

Turning to the following compound.
Measured IC50, CCC(C)[C@H]1O[C@]2(CC[C@@H]1C)C[C@@H]1C[C@@H](C/C=C(\C)[C@@H](O[C@H]3C[C@H](OC)[C@@H](O[C@H]4C[C@H](OC)[C@H]([S+](C)[O-])[C@H](C)O4)[C@H](C)O3)[C@@H](C)/C=C/C=C3\CO[C@@H]4[C@H](O)C(C)=C[C@@H](C(=O)O1)[C@]34O)O2 (some centres not stated) : 0.108 ng/mL

====

# System: Ovis aries
# experimental details: Tested for the anthelmintic efficacy against Ostertagia circumcincta at 0.1 mg/kg; range is 91-100%
# Type: functional
experimental readout: Reduction (%)
Give your result in % as a bare value.

Reported Ovis aries Reduction for item CCC(C)[C@H]1O[C@]2(CC[C@@H]1C)C[C@@H]1C[C@@H](C/C=C(\C)[C@@H](O[C@H]3C[C@H](OC)[C@@H](O[C@H]4C[C@H](OC)[C@H](S(=O)(=O)CCO)[C@H](C)O4)[C@H](C)O3)[C@@H](C)/C=C/C=C3\CO[C@@H]4[C@H](O)C(C)=C[C@@H](C(=O)O1)[C@]34O)O2 (stereo partly drawn) was 91

Reported Ovis aries Reduction for item CCC(C)[C@H]1O[C@]2(C=C[C@@H]1C)C[C@@H]1C[C@@H](C/C=C(\C)[C@@H](O[C@H]3C[C@H](OC)[C@@H](O[C@H]4C[C@H](OC)[C@@H]([S+](C)[O-])[C@H](C)O4)[C@H](C)O3)[C@@H](C)/C=C/C=C3\CO[C@@H]4[C@H](O)C(C)=C[C@@H](C(=O)O1)[C@]34O)O2 (stereo partly drawn) was 91

Reported Ovis aries Reduction for item CCC(C)[C@H]1O[C@]2(C=C[C@@H]1C)C[C@@H]1C[C@@H](C/C=C(\C)[C@@H](O[C@H]3C[C@H](OC)[C@@H](O[C@H]4C[C@H](OC)[C@H](SCCOC(C)=O)[C@H](C)O4)[C@H](C)O3)[C@@H](C)/C=C/C=C3\CO[C@@H]4[C@H](O)C(C)=C[C@@H](C(=O)O1)[C@]34O)O2 (stereo partly drawn) was 91

====

# System: Caenorhabditis elegans
# experimental details: Tested in vitro for the biological efficacy using Caenorhabditis elegans binding assay
# Format: functional, organism-based
experimental readout: IC50 (ng/mL)
Give your result in ng/mL as a bare value.

Known IC50 results, listed for orientation:
CCC(C)[C@H]1O[C@]2(C=C[C@@H]1C)C[C@@H]1C[C@@H](C/C=C(\C)[C@@H](O[C@H]3C[C@H](OC)[C@@H](O[C@H]4C[C@H](OC)[C@@H]([S+]([O-])CCO)[C@H](C)O4)[C@H](C)O3)[C@@H](C)/C=C/C=C3\CO[C@@H]4[C@H](O)C(C)=C[C@@H](C(=O)O1)[C@]34O)O2 (stereo partly drawn) = 0.469
CCC(C)[C@H]1O[C@]2(C=C[C@@H]1C)C[C@@H]1C[C@@H](C/C=C(\C)[C@@H](O[C@H]3C[C@H](OC)[C@@H](O[C@H]4C[C@H](OC)[C@@H](SCCNC(C)=O)[C@H](C)O4)[C@H](C)O3)[C@@H](C)/C=C/C=C3\CO[C@@H]4[C@H](O)C(C)=C[C@@H](C(=O)O1)[C@]34O)O2 (stereo partly drawn) = 0.165

Turning to the following molecule.
Measured IC50, CCC(C)[C@H]1O[C@]2(C=C[C@@H]1C)C[C@@H]1C[C@@H](C/C=C(\C)[C@@H](O[C@H]3C[C@H](OC)[C@@H](O[C@H]4C[C@H](OC)[C@H](S(=O)(=O)CC)[C@H](C)O4)[C@H](C)O3)[C@@H](C)/C=C/C=C3\CO[C@@H]4[C@H](O)C(C)=C[C@@H](C(=O)O1)[C@]34O)O2 (stereo partly drawn) : 0.128
